Experiment: gradient 5% acetonitrile 3 min, to 50% in 2 min, to 85% in 15 min, held 3 min, 100 µL/min
Details: column: Zorbax Extend-C18 2.1 x 50 mm; eluents: water / acetonitrile, 0.1% formic acid
Parameter threshold = 900 s. Response is yes when RP-LC retention time meets or exceeds it, else no.

compound | cat
CCOC(=O)c1noc2nc(C)nc(NCc3ccc(OC)cc3)c12 | yes
COCCNC(=O)C1CCc2sc(C(=O)N3CCCCCC3)cc2C1 (stereo not given) | no
CCc1ccc(NC(=O)C2CCCN(c3nccnc3Sc3ccc(C)cc3)C2)cc1 (stereo not given) | yes
Cc1c(CC(=O)NCC(C)C)c(=O)n2nc(-c3ccccc3)nc2n1C | no
Cc1ccc(CN2CCC(c3nc(-c4cnccn4)n[nH]3)CC2)c(C)c1 | no
Cc1nccn1Cc1nc(-c2ccc(F)c(Br)c2)no1 | no
Fc1ccc(Cn2cc(-c3noc(-c4ccc5cc[nH]c5c4)n3)nn2)cc1 | yes
COc1ccc2[nH]c(=O)c(CCC(=O)NCc3nc4ccccc4n3C)cc2c1 | no
Cc1oc(-c2[nH]ncc2C(=O)N(C)C)cc1S(=O)(=O)N1CCN(c2ccccc2)CC1 | no
